# Test System: MCL-1 protein (Homo sapiens, UniProt Q07820)
# Construct: Bim peptide bought from R&D, 3526/1 NA
# Sequence (Q07820 171-327): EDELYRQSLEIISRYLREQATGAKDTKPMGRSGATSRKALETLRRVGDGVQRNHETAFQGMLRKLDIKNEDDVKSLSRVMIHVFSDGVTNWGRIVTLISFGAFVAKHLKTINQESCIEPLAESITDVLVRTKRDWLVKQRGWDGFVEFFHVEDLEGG
# Experiment Description: MCL-1 protein binding experiment (HTRF, MCL-1/Bim)
# Experimental Conditions: HTRF MCL-1/Bim binding; initial concentration 10 μM; 10 µM
Can you tell me Maximum inhibition rate (%) for the items I'm about to list?
Express the result in % but write the number alone.

## Input Find Maximum inhibition rate (%) for Cc1c(C(=O)O)n2c3ccc(Cl)c(c13)-c1c(nn(C)c1C)CN(C)Cc1cc(n(C)n1)CSc1cc(c3ccccc3c1)OCCC2 (single isomer, unassigned) on MCL-1 protein (Homo sapiens, UniProt Q07820) and write it down.
## Output 99

## Input Find Maximum inhibition rate (%) for Cc1c(C(=O)O)n2c3ccc(Cl)c(c13)-c1c(nn(C)c1C)CSCc1cc(n(C)n1)CSc1cc3c(c(c1)OCCC2)CCCC3 (single isomer, unassigned) on MCL-1 protein (Homo sapiens, UniProt Q07820) and write it down.
## Output 100

## Input Find Maximum inhibition rate (%) for Cc1c(C(=O)O)n2c3ccc(Cl)c(c13)-c1c(nn(C)c1C)CSCc1cc(n(C)n1)CSc1cc3c(c(c1)OCCC2)CCC3 (single isomer, unassigned) on MCL-1 protein (Homo sapiens, UniProt Q07820) and write it down.
## Output 99

## Input Find Maximum inhibition rate (%) for Cc1c(C(=O)O)n2c3ccc(Cl)c(c13)-c1c(nn(C)c1C)CSCc1cc(n(C)n1)CSc1cc(c3ccccc3c1)OCCC2 (single isomer, unassigned) on MCL-1 protein (Homo sapiens, UniProt Q07820) and write it down.
## Output 95

## Input Find Maximum inhibition rate (%) for Cc1c(C(=O)O)n2c3ccc(Cl)c(c13)-c1c(nn(C)c1C)CSCc1cc(n(C)n1)CCc1cc3c(c(c1)OCCC2)CCCC3 (single isomer, unassigned) on MCL-1 protein (Homo sapiens, UniProt Q07820) and write it down.
## Output 98

====

Can you tell me inhibition at up to 10 µM for the items I'm about to list?
# Test System: MCL-1 protein (Homo sapiens, UniProt Q07820)
# Construct: Bim peptide bought from R&D, 3526/1 NA
# Experiment Description: MCL-1 protein binding experiment (HTRF, MCL-1/Bim)
# Experimental Conditions: HTRF MCL-1/Bim binding; initial concentration 10 μM; read-out: Maximum inhibition rate (%)
Express the result in % but write the number alone.

## Input Look up and state reported inhibition at up to 10 µM for Cc1c(C(=O)O)n2c3ccc(Cl)c(c13)-c1c(nn(C)c1C)CSCc1cc(n(C)n1)CSc1cc(c3ccccc3c1)OCCC2 (single isomer, unassigned) [Example 2-1]
## Output 100

## Input Look up and state reported inhibition at up to 10 µM for Cc1c(C(=O)O)n2c3ccc(Cl)c(c13)-c1c(nn(C)c1C)CSCc1cc(n(C)n1)CSc1cc(c3ccccc3c1)OCCC2 [Example 2]
## Output 99

## Input Look up and state reported inhibition at up to 10 µM for Cc1c(C(=O)O)n2c3ccc(Cl)c(c13)-c1c(nn(C)c1C)CSCc1cc(n(C)n1)CSc1cc3c(c(c1)OCCC2)CCC3 (single isomer, unassigned) [Example 13-1]
## Output 100

## Input Look up and state reported inhibition at up to 10 µM for Cc1c(C(=O)O)n2c3ccc(Cl)c(c13)-c1c(nn(C)c1C)CSCc1cc(n(C)n1)CCc1cc(c3ccccc3c1)OCCC2 (single isomer, unassigned) [Example 4-1]
## Output 100

## Input Look up and state reported inhibition at up to 10 µM for Cc1c(C(=O)O)n2c3ccc(Cl)c(c13)-c1c(nn3c1CCCC3)CSCc1cc(n(C)n1)CSc1cc(c3ccccc3c1)OCCC2 [Example 10]
## Output 101

## Input Look up and state reported inhibition at up to 10 µM for Cc1c(C(=O)O)n2c3ccc(Cl)c(c13)-c1c(nn(C)c1C)CSCc1cc(n(C)n1)CCc1cc3c(c(c1)OCCC2)CCCC3 [Example 8]
## Output 100

## Input Look up and state reported inhibition at up to 10 µM for Cc1c(C(=O)O)n2c3ccc(Cl)c(c13)-c1c(nn(C)c1C)CN(C)Cc1cc(n(C)n1)CSc1cc(c3ccccc3c1)OCCC2 (single isomer, unassigned) [Example 3-1]
## Output 100

## Input Look up and state reported inhibition at up to 10 µM for Cc1c(C(=O)O)n2c3ccc(Cl)c(c13)-c1c(nn(C)c1C)CSCc1cc(n(C)n1)CCc1cc(c3ccccc3c1)OCCC2 [Example 4]
## Output 99

## Input Look up and state reported inhibition at up to 10 µM for Cc1c(C(=O)O)n2c3ccc(Cl)c(c13)-c1c(nn(C)c1C)CSCc1cc(n(C)n1)CSc1cc(cc3c1CCC3)OCCC2 (single isomer, unassigned) [Example 12-1]
## Output 100

## Input Look up and state reported inhibition at up to 10 µM for Cc1c2c(nn1C)CSCc1cc(n(C)n1)CSc1cc(c3ccccc3c1)OCCCn1c(C(=O)O)cc3c-2c(Cl)ccc31 [Example 1]
## Output 100

## Input Look up and state reported inhibition at up to 10 µM for Cc1c2c(nn1C)CSCc1cc(n(C)n1)CSc1cc(c3ccccc3c1)OCCCn1c(C(=O)O)cc3c-2c(Cl)ccc31 (single isomer, unassigned) [Example 1-1]
## Output 100

## Input Look up and state reported inhibition at up to 10 µM for Cc1c(C(=O)O)n2c3ccc(Cl)c(c13)-c1c(nn(C)c1C)CSCc1cc(n(C)n1)CSc1cc3c(c(c1)OCCC2)CCCC3 [Example 7]
## Output 99

====

# Test System: MCL-1 protein (Homo sapiens)
# Construct: Bim peptide bought from R&D, 3526/1 NA
# Experiment Description: MCL-1 protein binding experiment (HTRF, MCL-1/Bim)
# Experimental Conditions: HTRF MCL-1/Bim binding; initial concentration 10 μM; read-out: Maximum inhibition rate (%)
Parameter: inhibition at up to 10 µM
# number then unit; no other words

## Input Look up and state reported inhibition at up to 10 µM for Cc1c(C(=O)O)n2c3ccc(Cl)c(c13)-c1c(nn(C)c1C)CSCc1cc(n(C)n1)CCc1cc3c(c(c1)OCCC2)CCCC3 (single isomer, unassigned) [Example 8-1]
## Output 100%

## Input Look up and state reported inhibition at up to 10 µM for Cc1c(C(=O)O)n2c3ccc(Cl)c(c13)-c1c(nn(C)c1C)CN(C)Cc1cc(n(C)n1)CSc1cc(c3ccccc3c1)OCCC2 [Example 3]
## Output 100%

## Input Look up and state reported inhibition at up to 10 µM for Cc1cc2cc(c1)SCc1cc(nn1C)CSCc1nn(C)c(C)c1-c1c(Cl)ccc3c1c(C)c(C(=O)O)n3CCCO2
## Output 98%

====

# System: AMO-1 cells
# Experiment Description: Cell proliferation experiment (intracellular ATP, CellTiter-Glo), AMO-1
# Format: cell-based
# Experimental Conditions: Homo sapiens, AMO1, 72 h, read-out: AMO-1 IC50
Parameter: pIC50
Lab note: report pIC50 as minus log10 of the concentration in molar units, number only.

## Input Look up and state reported pIC50 for Cc1c(C(=O)O)n2c3ccc(Cl)c(c13)-c1c(nn(C)c1C)CSCc1cc(n(C)n1)CCc1cc(c3ccccc3c1)OCCC2 (single isomer, unassigned)
## Output 7.43

====

Can you tell me inhibition at up to 10 µM for the items I'm about to list?
# Test System: MCL-1 protein (Homo sapiens, UniProt Q07820)
# Construct: Bim peptide bought from R&D, 3526/1 NA
# Experiment Description: MCL-1 protein binding experiment (HTRF, MCL-1/Bim)
# Experimental Conditions: HTRF MCL-1/Bim binding; initial concentration 10 μM; read-out: Maximum inhibition rate (%)
# Experimental: The following method was used to determine the binding ability of the compound of the present invention to MCL-1 protein. The experimental method is briefly described as follows. MCL-1 inhibitors can bind to MCL-1 protein to prevent the binding of MCL-1 to Bim protein. The experiment evaluates the binding ability of MCL-1 inhibitor to MCL-1 protein by detecting the binding of MCL-1 to Bim protein through HTRF method, and the activity of the compound was evaluated according to the Ki value. […]
Express the result in % but write the number alone.

## Input Look up and state reported inhibition at up to 10 µM for Cc1c(C(=O)O)n2c3ccc(Cl)c(c13)-c1c(nn3c1CCCC3)CN(C)Cc1cc(n(C)n1)CSc1cc(c3ccccc3c1)OCCC2
## Output 100

## Input Look up and state reported inhibition at up to 10 µM for CCc1c(C(=O)O)n2c3ccc(Cl)c(c13)-c1c(nn(C)c1C)CSCc1cc(n(C)n1)CSc1cc(c3ccccc3c1)OCCC2 (single isomer, unassigned)
## Output 100

## Input Look up and state reported inhibition at up to 10 µM for Cc1c(C(=O)O)n2c3ccc(Cl)c(c13)-c1c(nn(C)c1C)CSCc1cc(n(C)n1)CSc1cc3c(c(c1)OCCC2)CCCC3 (single isomer, unassigned) [Example 7-1]
## Output 99

## Input Look up and state reported inhibition at up to 10 µM for Cc1c(C(=O)O)n2c3ccc(Cl)c(c13)-c1c(nn(C)c1C)CSCc1cc(n(C)n1)CSc1cc(cc3c1CCC3)OCCC2 [Example 12]
## Output 100

## Input Look up and state reported inhibition at up to 10 µM for Cc1cc2cc(c1)SCc1cc(nn1C)CN(C)Cc1nn(C)c(C)c1-c1c(Cl)ccc3c1c(C)c(C(=O)O)n3CCCO2
## Output 99

## Input Look up and state reported inhibition at up to 10 µM for Cc1c(C(=O)O)n2c3ccc(Cl)c(c13)-c1c(nn(C)c1C)CN(C)Cc1cc(n(C)n1)CSc1cc3c(c(c1)OCCC2)CCCC3
## Output 100
